Origin of measurements: BigSolDB 2.1

details: in water, 283.2 K
property.label: solubility (mole fraction)

chemical_smiles=O=c1cc(-c2ccc(O)c(O)c2)oc2cc(O)cc(O)c12 property_label="solubility (mole fraction)" recorded_value=2.72e-07

----------
settings: in ethanol, 313.2 K
property.label: solubility (mole fraction)

chemical_smiles=O=c1cc(-c2ccc(O)c(O)c2)oc2cc(O)cc(O)c12 property_label="solubility (mole fraction)" recorded_value=0.00271

----------
details: in ethanol, 303.2 K
property.label: solubility (mole fraction)

chemical_smiles=O=c1cc(-c2ccc(O)c(O)c2)oc2cc(O)cc(O)c12 property_label="solubility (mole fraction)" recorded_value=0.00205

----------
conditions: in ethanol, 293.2 K
property.label: solubility (mole fraction)

chemical_smiles=O=c1cc(-c2ccc(O)c(O)c2)oc2cc(O)cc(O)c12 recorded_value=0.00174

----------
settings: in water, 273.2 K
property.label: solubility (mole fraction)

chemical_smiles=O=c1cc(-c2ccc(O)c(O)c2)oc2cc(O)cc(O)c12 property_label="solubility (mole fraction)" recorded_value=2.06e-07

----------
settings: in water, 303.2 K
property.label: solubility (mole fraction)

chemical_smiles=O=c1cc(-c2ccc(O)c(O)c2)oc2cc(O)cc(O)c12 property_label="solubility (mole fraction)" recorded_value=4.68e-07

----------
conditions: in ethanol, 323.2 K
property.label: solubility (mole fraction)

chemical_smiles=O=c1cc(-c2ccc(O)c(O)c2)oc2cc(O)cc(O)c12 recorded_value=0.00318

----------
settings: in ethanol, 283.2 K
property.label: solubility (mole fraction)

chemical_smiles=O=c1cc(-c2ccc(O)c(O)c2)oc2cc(O)cc(O)c12 recorded_value=0.00117
